- STUDY TARGET: UDP-galactopyranose mutase (MtbUGM) (Mycobacterium tuberculosis, UniProt P9WIQ1)
- Sequence (P9WIQ1 whole entry): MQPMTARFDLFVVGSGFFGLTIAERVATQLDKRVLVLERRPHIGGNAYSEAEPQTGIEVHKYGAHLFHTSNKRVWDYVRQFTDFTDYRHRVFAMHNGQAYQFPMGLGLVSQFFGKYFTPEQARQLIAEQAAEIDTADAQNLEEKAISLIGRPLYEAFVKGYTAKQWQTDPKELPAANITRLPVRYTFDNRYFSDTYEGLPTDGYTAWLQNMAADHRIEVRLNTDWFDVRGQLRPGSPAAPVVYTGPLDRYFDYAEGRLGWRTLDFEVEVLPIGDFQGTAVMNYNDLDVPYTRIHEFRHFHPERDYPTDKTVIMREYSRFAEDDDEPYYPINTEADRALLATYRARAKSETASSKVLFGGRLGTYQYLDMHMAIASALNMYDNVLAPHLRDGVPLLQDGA
pKi: −log10 of the molar value.
OBSERVATION TYPE: pKi

[[record]]
test_smiles = "Cc1cc(OC(=O)c2ccc(S(N)(=O)=O)cc2)n(-c2ccc(Cl)cc2)n1"
data_value = 4.29


Hey, just so you know, these numbers are from paper PMC8874540.
